The reported numbers originate from the supplement of paper PMC10567573.

B1: ZNF207 (parent)
chain: YQGGPPRPPMGMRPPVMSQGGRY

# Variants of: B1
# Assay Method Text: protein stability index of a GFP-peptide fusion (GPS, HEK-293T) (PSI 1-6); higher = more stable;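 further: lentivirally expressed fusions sorted by FACS into six bins by GFP to DsRed ratio, PSI derived from sequencing read proportions per bin multiplied by bin number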
# Recorded Conditions: c terminus: native
Returns one of yes or no; yes when protein stability index is >= 2.

- Primary Sequence: "YQGGPPRPPMGMRPPVMSQGGRL [Y23L]"
  Assigned Label: "no"
- Primary Sequence: "YQGGPPRPPMGMRPPVMSQRGRY [G20R]"
  Assigned Label: "yes"
- Primary Sequence: "YQGGPPRPPMGMRPPVMSEGGRY [Q19E]"
  Assigned Label: "yes"
- Primary Sequence: "YWGGPPRPPMGMRPPVMSQGGRY [Q2W]"
  Assigned Label: "yes"
- Primary Sequence: "YQGGPPRPRMGMRPPVMSQGGRY [P9R]"
  Assigned Label: "no"
- Primary Sequence: "YQGGMPRPPMGMRPPVMSQGGRY [P5M]"
  Assigned Label: "no"
- Primary Sequence: "RQGGPPRPPMGMRPPVMSQGGRY [Y1R]"
  Assigned Label: "yes"
- Primary Sequence: "YEGGPPRPPMGMRPPVMSQGGRY [Q2E]"
  Assigned Label: "yes"
- Primary Sequence: "YQGGPPRPPMGMRPPVMSQGGRP [Y23P]"
  Assigned Label: "yes"
- Primary Sequence: "YQGGPPRPPMGIRPPVMSQGGRY [M12I]"
  Assigned Label: "yes"

Could you tell me if the measured protein stability index of YQGGPARPPMGMRPPVMSQGGRY [P6A] reaches 2 or more?
no

Decide: protein stability index of YQGGPPRPHMGMRPPVMSQGGRY [P9H] >= 2?
no

Reported protein stability index reaches at least 2 for YQGGPYRPPMGMRPPVMSQGGRY [P6Y] ?
no

# bool: protein stability index of YQGGPPRPPMGMRPPVMNQGGRY [S18N] >= 2
yes
